Form field: growth (one value per entry).
system: MALME-3M melanoma; experiment: NCI-60 one-dose screen, 48 h (100 = growth as untreated, 0 = no growth, -100 = all killed); settings: 10 µM unless noted
Compounds without any hit were thinned out: in the full panel of roughly 83,000, 20% have a hit.
Enter your answer as a number in %; do not include the unit.

{"Molecule": "Cc1ccc(Nc2cc(=S)nc(N)[nH]2)cc1C", "growth (%)": 100}
{"Molecule": "COc1cc(CCNc2nc3cc(N)cc(N)c3nc2-c2ccccc2)cc(OC)c1", "growth (%)": -66.4}

Prompt line: Entry Clc1ccc(N2N=C(c3cccc(Nc4ccncc4)c3)CC2c2ccccc2)cc1 (stereo not given) has what growth?
Response line: 93.5

Prompt line: Entry CC[N+](CC)(CCCC(C)[N+]1(Cc2ccccc2)C(C)=CC=C1C)Cc1ccccc1 (stereo not given) has what growth?
Response line: 87.8

Prompt line: Entry COC(=O)C1NC(=S)N(c2ccc(Cl)cc2)C1/C=C/c1ccccc1 (stereo not given) has what growth?
Response line: 103

====

system: K-562 leukemia; experiment: NCI-60 one-dose screen, 48 h (100 = growth as untreated, 0 = no growth, -100 = all killed); conditions: 10 µM unless noted
This is part of a sample that, as a whole, favours compounds with a hit. Of some 83,000 tested, about 20% had one in any assay.
Reported Property: growth (%)
Enter your answer as a number in %; do not include the unit.

Solved cases (5 shown):
{"Compound Structure String": "O=C(Nc1nc2ccc(S(=O)(=O)Nc3ccc(C4(C(F)(F)F)CC4)cc3)cc2[nH]1)c1cnccn1", "Numeric Result": 21.4}
{"Compound Structure String": "Cc1ccccc1C(c1ccccc1)c1ccccc1C", "Numeric Result": 105}
{"Compound Structure String": "C[C@]12CCc3nc(Nc4cccc(O)c4)sc3C1=CC[C@@H]1[C@@H]2CC[C@]2(C)/C(=N\\NC(N)=S)CC[C@@H]12", "Numeric Result": 3.19}
{"Compound Structure String": "CN1C2CCC1CN(c1cnc(C(=O)Nc3cc(F)cc4cccnc34)cn1)C2", "Numeric Result": 15.7}
{"Compound Structure String": "CCCN=C(N)c1ccc(NC(=O)c2ccc(C(=O)Nc3ccc(C(N)=NCCC)cc3)cc2)cc1", "Numeric Result": 91}

Prompt line: Notebook: pull reported growth for K-562 leukemia, entry "CC1(C)CN(c2cnc(C(=O)Nc3cc(F)cc4cccnc34)cn2)CCN1"
Response line: 36.3

Prompt line: Notebook: pull reported growth for K-562 leukemia, entry "COc1cccc(CNCCN2C(=O)c3ccc4c5c(ccc(c35)C2=O)C(=O)N(CCNCc2cccc(OC)c2)C4=O)c1"
Response line: 8.7

Prompt line: Notebook: pull reported growth for K-562 leukemia, entry "O=S(=O)(NCCNc1nccc(-c2c(-c3ccc(F)c(O)c3)nc3occn23)n1)c1ccccc1"
Response line: 33.6

Prompt line: Notebook: pull reported growth for K-562 leukemia, entry "CC(=O)CCSc1ccc(OC(C)=O)cc1"
Response line: 96.1

====

system: SF-539 CNS; experiment: NCI-60 one-dose screen, 48 h (100 = growth as untreated, 0 = no growth, -100 = all killed); conditions: 10 µM unless noted
Compounds without any hit were thinned out: in the full panel of roughly 83,000, 20% have a hit. Calls of active or inactive are those of the source. The calls were made as follows: active = growth percent below 10; inactive = the rest.
Reported Property: growth

Solved cases (5 shown):
{"Compound": "COc1ccccc1/C=C1\\COc2ccc(-c3ccccc3)cc2C1=O", "Assay System": "SF-539 CNS", "Reported Property": "growth", "Result": "30.5% (inactive)"}
{"Compound": "CC[C@H](CC[C@@H](C)[C@H]1CC[C@H]2[C@@H]3CC=C4C[C@@H](OCCc5nn[nH]n5)CC[C@]4(C)[C@H]3CC[C@]12C)C(C)C", "Assay System": "SF-539 CNS", "Reported Property": "growth", "Result": "103% (inactive)"}
{"Compound": "COc1cc(C2CC(c3cccc(Nc4ccncc4)c3)=NN2c2ccc(Cl)cc2)cc(OC)c1OC (centres undefined)", "Assay System": "SF-539 CNS", "Reported Property": "growth", "Result": "68.3% (inactive)"}
{"Compound": "COc1ccc(-c2nc(N/N=C/c3ccco3)nc(N3CCOCC3)c2C#N)cc1", "Assay System": "SF-539 CNS", "Reported Property": "growth", "Result": "74.2% (inactive)"}
{"Compound": "Cc1cc(C)n(Nc2nc3ccccc3[nH]c2=O)c(=O)c1C#N", "Assay System": "SF-539 CNS", "Reported Property": "growth", "Result": "87.2% (inactive)"}

Prompt line: Notebook: pull reported growth for SF-539 CNS, entry "O=S(=O)(NCCCNc1nccc(-c2c(-c3ccccc3)nc3occn23)n1)c1ccc(Cl)cc1"
Response line: 110% (inactive)

Prompt line: Notebook: pull reported growth for SF-539 CNS, entry "O=C(CSc1nc2sc3c(c2c(=O)n1Cc1ccccc1)CCCC3)N1CCN(c2ccccc2)CC1"
Response line: 103% (inactive)

Prompt line: Notebook: pull reported growth for SF-539 CNS, entry "COc1ccc(-c2nc(N/N=C/c3cccc(O)c3)nc(N3CCOCC3)c2C#N)cc1"
Response line: 54.5% (inactive)

Prompt line: Notebook: pull reported growth for SF-539 CNS, entry COc1ccc(C(O)c2cc3c(N)c(C(=O)Nc4cccc(OC)c4)sc3nc2C)cc1 (centres undefined)
Response line: -12% (active)

Prompt line: Notebook: pull reported growth for SF-539 CNS, entry "CN1C(=O)N(C)[C@H]2NC(NN)=N[C@H]21"
Response line: 102% (inactive)

Prompt line: Notebook: pull reported growth for SF-539 CNS, entry "N#C/C(=C\c1ccc(Br)cc1)n1nnc2cccc(F)c21"
Response line: 1.06% (active)

Prompt line: Notebook: pull reported growth for SF-539 CNS, entry CC(=O)OCC(=O)C1(O)C(C)CC2C3C=C(C)C4=Cc5c(cnn5-c5ccccc5)CC4(C)C3C(O)CC21C (centres undefined)
Response line: -21.3% (active)

Prompt line: Notebook: pull reported growth for SF-539 CNS, entry "Cc1ccc2[nH]c(=O)cc(-n3nncc3COc3ccc(C=O)cc3)c2c1"
Response line: 99.4% (inactive)
